What apparent KD of MS2 coat protein was measured for each of the following?
Test system: MS2 coat protein
experimentalProtocol: apparent KD of MS2 coat protein; higher = weaker reporter binding
assayConditions: Eterna round: R107; input ligand: tryptophan 2.4 mM
Give bare numbers, in nM.

Example cases with answers are listed next.
{"constructSequence": "AUAUUAAAGAGUGAUACCAGACUACAUGAGGAUCACCCAUGUUACAUUUAAAUAUCAUUUGUCCCUUGGCAGCACAUUAAGUACA [JR_Nu_ExcTheophyB_Sub022]", "studySystem": "MS2 coat protein", "unitTag": "nM", "measValue": 17.5}
{"constructSequence": "CUAUUGAUAGCGGCCGCCACUUACUCAUGAGGUAACAACAUGAGGAUCACCCAUGUUUGAGGAUCAAGGACCGGGCUAUUGAUAG [AstrosSSTryB#13]", "studySystem": "MS2 coat protein", "unitTag": "nM", "measValue": 23.8}
{"constructSequence": "GGCCCACAUGAGGAUCACCCAUGUGUGGAUACCAGCCUCAUUUAGGGCCCUUGGCAGCCAGAUAGUAACAAGUCCGAAACACAGA [theeternabot_sameState_MS2_Theo_A_24]", "studySystem": "MS2 coat protein", "unitTag": "nM", "measValue": 144}

// for each sequence below, give its apparent KD of MS2 coat protein
1. AAACGCCACGGAAGGAGCGACAUGAGGAUCACCCAUGUAGAUUUGGCGGAUGCACCCUCCUGUCAGGUAGGUCGCCGUGCGAUAA [XArg-B25]
2. GCACCAGGUACGGAUACCAGACUCUGCCGAUUGGGUGAACAUGAGGAUCACCCAUGUUAGGUCCCUUGGCAGCCGUACCUGGUGC [#18 Exclusion-TheophyllineB]

result:
1: 86.6; 2: 30.3

----------
Test system: K4 kissing-loop RNA reporter;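 note: bound reporter read as fluorescence of individual clusters on recovered sequencing chips by microscopy, with normalized cluster intensities fitted with a binding model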
experimentalProtocol: apparent KD of K4 kissing-loop reporter; higher = weaker reporter binding
assayConditions: Eterna round: R107; input ligand: FMN 200 uM
recordedMetric: apparent KD of K4 kissing-loop reporter

Example cases with answers are listed next.
{"constructSequence": "AGUUAUGUAUCAGGAUAUUAGUGAUGUUUGUUUAUGUUAGUGAUGUUGAUAUUUGUUUUAUGUAUUUAAGAAGGGAUUGAGAUGU [ccgcmullin]", "studySystem": "K4 kissing-loop RNA reporter", "apparent KD of K4 kissing-loop reporter": "57.1 nM"}
{"constructSequence": "UACUUAUAGUUAUUUCUAAAUUUAUUUAGUCAGGAUAUCGAAUAGUCGAGAAGGGACAUAAUCAAGUGAUGUUUGAUUAUUCAAA [JR_SSFMNA_Sub023]", "studySystem": "K4 kissing-loop RNA reporter", "apparent KD of K4 kissing-loop reporter": "64.8 nM"}
{"constructSequence": "UACUUAUAUUUCAACUUAAAUUAUUCAGAAGGAGCGUGAUCAUUCACAGGUAGGUCGCUGAACUAGUGAUGUUAGUUUUAAUUUU [JR_Nu_ExcArginiA_Sub022]", "studySystem": "K4 kissing-loop RNA reporter", "apparent KD of K4 kissing-loop reporter": "66.3 nM"}

// for each sequence below, give its apparent KD of K4 kissing-loop reporter
1. UUGUAUAGUGGAAGGAGCGCGUGGGCGCAGUGAUGUUGCGCCCGACAUCACUUCAACUUAACGCAGGUAGGUCGCCAUUGUAAUG [Arginine B (Excl) V5]
2. GGACGCCGGUCGGCCGCCACUCACAGCAGUGAUGUUGCUGAGAAUGUAGCGGAGUGAUGUUCCGAGAGGACCGGGACUGCAGUUU [Same State Tryptophan B GF 9]
3. AAAGGCAAAGCCCGAGUGAUGUUCGACGAUACCAGCCUCGAUAGAGGCCCUUGGCAGCGUAAAUGAUCAUGAAGCCAAGGAAUAA [whbob_Ex_Theo_A_th67]
4. AGACUACCACACUGUCAAUAGACAGUGAGCUAGGAUAUGCUGAUAAGCAGAAGGAGUGAUGUUCCGAGGUAGUCAAUAAAAUAAU [FmnAX 13 G29+G66]
5. AGCCGAAAGGCGAGUGCUGUCACUCCGGAAGGAGCGGCGAAAACGCCAGGUAGGUCGCCGGAGUGAUGUUCCGGUGCAGCACUCA [Omei KL Arginine A Exc B v2]
6. UGGAGUUGACGAAAAGUCAACUCCUGGGAAGGAGCGGACGAAAGUCCAGGUAGGUCGCUCACUACCAGUGAUGUUGGUACUUAAA
7. CACGAUGAAUUCUCUAGGAGUGAUGUUUUUCGAGGACCGGUACGGCCGCCACUCGGACGACGAGCGUGGUAGCGGCCUGAAGACU [,omullin]

result:
131 nM
240 nM
352 nM
395 nM
603 nM
229 nM
743 nM

----------
Tested on: MS2 coat protein
experimentalProtocol: apparent KD of MS2 coat protein; designed switch direction (-1 OFF switch, 1 ON switch): -1; higher = weaker reporter binding
assayConditions: input ligand: FMN 200 uM
recordedMetric: apparent KD of MS2 coat protein

// for each sequence below, give its apparent KD of MS2 coat protein
1. GUCAGCUCGUGAGGAUAUACAUGAGGAUCACCCAUGUGGUCAUUAGCAGCUUCGGCUGCAUUAAUGUAGAAGGCACGAGCUGAC [ENG2/8-A1] (Eterna round: R96, puzzle: Exclusion NG 2)
2. UAGAUACAUGAGGAUCACCCAUGUGAGGAUAUGAGGGUUAGCUUAAAUGGGCUGACUUUCAGAAGGCACAAGAA [JR_Ex1_Sub057] (Eterna round: R97, puzzle: Exclusion 1)
3. GGAUCUACUGAGGAUAUUAUAUCACCCGACUGAUAAGAAGGCAGUACAUGAGGAUCACCCAUGUGGGUAGCCAU [Polaris8] (Eterna round: R97, puzzle: Exclusion 6)

result:
635 nM
94.7 nM
64.3 nM

----------
System: MS2 coat protein
experimentalProtocol: apparent KD of MS2 coat protein; designed switch direction (-1 OFF switch, 1 ON switch): -1; higher = weaker reporter binding
assayConditions: Eterna round: R95; input ligand: microRNA oligo, concentration not stated
recordedMetric: apparent KD of MS2 coat protein (nM)
One number for each entry, in nM.

Example cases with answers are listed next.
{"constructSequence": "CUAGAUCUUCGGAUCUAGUACAUGAGGAUCACCCAUGUGACGAGUAUAUCUUCAAACAAGCUUUUUGCUCGUCUUAU [Sensor v3 - Turn-off variant 1 - 24] (puzzle: Sensor v3, turn-off variant 1)", "apparent KD of MS2 coat protein (nM)": 49.5}
{"constructSequence": "CUGAGCUGAGGAUAUACAUGAGGAUCACCCAUGUGUUGGAGCUUGCGUACAGGCAGAUGUAGAAGGCAGUUCGG [JL-ex3-3.32 Brourd mod] (puzzle: Exclusion 3)", "apparent KD of MS2 coat protein (nM)": 19.5}

// for each sequence below, give its apparent KD of MS2 coat protein
1. AAGAAACAUGAGGAUCACCCAUGUGAGGAUAUGAAAAAGAAAAGAAAAGAAAGAAGCUUCAGAAGGCACAAAGG [salish99-ex1_r3_030] (puzzle: Exclusion 1)
2. CUGGUCCGAGGAUAUAUUAAGUGAAACAUGAGGAUCACCCAUGUUAUUUAAUGGAAGUAAAUAGAAGGCGGACUAG [Mat - Exclusion 5 - JL mod - D54] (puzzle: Exclusion 5)
3. GAAGAACAUGAGGAUCACCCAUGUGAGGAUAUGAAAAAGAAAAGAAAAGAAAGAAGAAUCAGAAGGCACAAAGG [Mat - Mod of Hog D2] (puzzle: Exclusion 1)
4. AGUGCGUAUGUGAGGAUAUGCUGGUCCUUGGAUCGGCAGAAGGUACAUGAGGAUCACCCAUGUGGUGUCGUUCU [salish99_Bmod_ex4_104] (puzzle: Brourd's mod of Exclusion 4)
5. GUCUCGUGAGGAUAUGACGCUACUUUUUUGUUUUAGUAGAGUCAGAAGGCACAUGAGGAUCACCCAUGUGAUUC [Ex4 - 3 - 4] (puzzle: Exclusion 4)

result:
[27.5, 48.8, 23.1, 409, 56]

// for each sequence below, give its apparent KD of MS2 coat protein
1. GAAAAGUGAGGAUAUGGUAAAAGAAAAAGAAGAAGAAAACUCCAGAAGGCACAUGAGGAUCACCCAUGUGAAAG [salish99_ex4_r3_007] (puzzle: Exclusion 4)
2. UCAUGGUAGCAGGAUAUGCUUGUAAUUUUUUUUGCAGAAGGGCUUACAUGAGGAUCACCCAUGUGUUAGGUCUA [JR_E6_Sub068] (puzzle: Exclusion 6)
3. AGCCAGCUAGGAUAUUGCAGUUGUAACAUGAGGAUCACCCAUGUGAUAGGUGUUUAGCUCCAAGAAGGAGCGCGGC [Eronsoti] (puzzle: Exclusion 5)
4. ACUAGAUGAGGAUAUACACAUUUUAGUGUUCCUCUAGAUUAACAUGAGGAUCACCCAUGUAGAAGGCAUCAUUA [Exclusion 2 - 9] (puzzle: Exclusion 2)
5. UGUGCGUAUGUGAGGAUAUGCUGGUCCUUGGAUCGGCAGAAGGCACAUGAGGAUCACCCAUGUGGUGUCGUACU [salish99_Bmod_ex4_083] (puzzle: Brourd's mod of Exclusion 4)
6. CGGUGCUGAGGAUAUACAUGAGGAUCACCCAUGUGUUCCAGCUAGGUGACUGGCAAAUGUAGAAGGCGGUACUG [JL-ex3-3.36 Brourd mod] (puzzle: Exclusion 3)
7. CUAGAUCUUCGGAUCUAGGACAUGAGGAUCACCCAUGUCACGAGCAGAUCUUCAUGCAAGCUUUUUGCUCGUCUUAU [Sensor v3 - Turn-off variant 1 - 37] (puzzle: Sensor v3, turn-off variant 1)

result:
1. 17.4
2. 30.7
3. 27.1
4. 65
5. 235
6. 77.7
7. 409

// for each sequence below, give its apparent KD of MS2 coat protein
1. GGAAAGGUAGGAUAUACGAAGAAAAAGGGUAGAAUAAUAACACAUGAGGAUCACCCAUGUAGAAGGACCAAAGG [Mat - Exclusion 2 - Mod of my Tesla design - D6] (puzzle: Exclusion 2)
2. UAGGUGUGAGGAUAUGGUAAAGAAAAGAUGAUGAAAGAACUCCAGAAGGCACAUGAGGAUCACCCAUGUAGAUG [Mat - Exclusion 4 - Mod of JL - D32] (puzzle: Exclusion 4)
3. GCUUGGCGAGGAUAUACAUGAGGAUCACCCAUGUGAGAGAAUAAAGUGAGGAAGAAAAGUAGAAGGCGCUGAGG [Mat - Exclusion 3 - Mod of Salish D58] (puzzle: Exclusion 3)
4. GAUUGACAUGAGGAUCACCCAUGUGAGGAUAUCGGCUGGUACGUGUUGGCUUGCCUCUCGAGAAGGCGCAUAGG [Exclusion 1 V55] (puzzle: Exclusion 1)
5. GUGUACGCAGGAUAUACAUGAGGAUCACCCAUGUGAAUAAGAUAGAAUAAGAUAAAGUGUAGAAGGGCGAGUGU [Excluse me!!! 5 - Jieux - Exclusion 3] (puzzle: Exclusion 3)

result:
23.1
28.7
40.4
38.5
28.3

Notebook: AGAUGGCGAGGAUAUACAUGAGGAUCACCCAUGUGAGAGAUUAGAGUGAGGAAGAAAAGUAGAAGGCGCUGUCA [Mat - Exclusion 3 - Mod of Salish D18] (puzzle: Exclusion 3) , apparent KD of MS2 coat protein read as 98.4

Value source: the supplement of paper PMC9170038
